biological target: Protein Tat (Human immunodeficiency virus type 1 group M subtype B (isolate HXB2)) (UniProt P04608); assay: inhibitors of Tat binding to TAR RNA, dose response, counter-screen for Vif-APOBEC3G degradation inhibitor project, biochemical, fluorescence polarization, FAM-labeled TAR RNA (AID 1117361)
Sequence (P04608 whole entry, looked up): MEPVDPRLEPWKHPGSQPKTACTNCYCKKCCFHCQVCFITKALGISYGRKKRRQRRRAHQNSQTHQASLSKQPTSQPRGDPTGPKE
// values below are reported IC50

[
  {
    "Molecule": "CC(=O)c1ccc(S(=O)(=O)Nc2cccc(-n3cnnn3)c2)cc1",
    "IC50": "74.2 µM"
  },
  {
    "Molecule": "COc1ccc(-c2cc(-c3ccco3)[nH]c(=O)c2C#N)cc1",
    "IC50": "15.1 µM"
  },
  {
    "Molecule": "CC1CCN(Cc2c(O)ccc3c2O/C(=C\\c2ccco2)C3=O)CC1",
    "IC50": "4.79 µM"
  },
  {
    "Molecule": "CC1=NN(c2cccc(C(=O)O)c2)C(=O)/C1=C\\C=C\\c1ccco1",
    "IC50": "12 µM"
  },
  {
    "Molecule": "O=C(COC(=O)c1cc(-c2ccco2)nc2ccccc12)NCc1ccc2c(c1)OCO2",
    "IC50": "18.2 µM"
  },
  {
    "Molecule": "O=C(NCCCO)c1ccc2nc(-c3ccco3)c(-c3ccco3)nc2c1",
    "IC50": "3.58 µM"
  },
  {
    "Molecule": "O=C(Nc1cccc(C(F)(F)F)c1)c1ccc2nc(-c3ccco3)c(-c3ccco3)nc2c1",
    "IC50": "6.07 µM"
  },
  {
    "Molecule": "C=C(C)C(=O)Nc1cccc(C2=NOC3(C2)C[C@@H](C(N)=O)N(C(=O)/C=C/CC)C3)c1 (some centres undefined)",
    "IC50": "24.5 µM"
  },
  {
    "Molecule": "COc1cc(CNCCc2ccc(F)cc2)ccc1OCc1ccc(Cl)nc1",
    "IC50": "9.8 µM"
  },
  {
    "Molecule": "Cn1cnnc1SC/C(O)=C(\\C#N)c1nc2ccccc2[nH]1",
    "IC50": "37.4 µM"
  },
  {
    "Molecule": "CC1=C(C(=O)Nc2ccccc2F)C(c2ccsc2)C2=C(CC(c3ccccc3)CC2=O)N1 (centres undefined)",
    "IC50": "4.06 µM"
  },
  {
    "Molecule": "Cn1cnnc1SCC(=O)Nc1ncc([N+](=O)[O-])s1",
    "IC50": "58.2 µM"
  },
  {
    "Molecule": "CC(=O)NC1=NC(=O)/C(=C/c2cc(C)n(-c3cccc(C(=O)O)c3)c2C)S1",
    "IC50": "29.7 µM"
  },
  {
    "Molecule": "CC(C)CC(=O)Nc1nnc(-c2ccco2)s1",
    "IC50": "53.8 µM"
  },
  {
    "Molecule": "CCOC(=O)C1CCCN(C(=O)c2cc(-c3ccco3)nc3ccccc23)C1 (centres undefined)",
    "IC50": "27.8 µM"
  },
  {
    "Molecule": "CCOc1cccc(=O)c2c(C)n(-c3ccc(C(=O)O)cc3)c(C)c12",
    "IC50": "3.3 µM"
  },
  {
    "Molecule": "CCOc1cc(N2CCOCC2)c(OCC)cc1NC(=O)CSc1ncn[nH]1",
    "IC50": "35.7 µM"
  },
  {
    "Molecule": "COc1ccc(O)c(N)c1",
    "IC50": "5.5 µM"
  },
  {
    "Molecule": "CCOC(=O)N1CC=C2C(C#N)=C(N)C(C#N)(C#N)[C@H](c3cccs3)[C@H]2C1",
    "IC50": "15.3 µM"
  },
  {
    "Molecule": "O=C1/C(=C\\c2ccco2)SC(=S)N1c1ccccc1",
    "IC50": "9.64 µM"
  },
  {
    "Molecule": "O=C1NC(=O)C(=Cc2ccc(SC3CCCCC3)o2)C(=O)N1",
    "IC50": "30.9 µM"
  },
  {
    "Molecule": "COC(=O)c1ccccc1NC(=O)C1CCCC1",
    "IC50": "4.92 µM"
  },
  {
    "Molecule": "CCN(CC)Cc1cc(O)c(CN(CC)CC)cc1O",
    "IC50": "4.37 µM"
  },
  {
    "Molecule": "Cc1ccc(/C=C/C(=O)Nc2ncc(C)s2)o1",
    "IC50": "16 µM"
  }
]

* * *

biological target: Protein Tat (Human immunodeficiency virus type 1 group M subtype B (isolate HXB2)); experiment: inhibitors of Tat binding to TAR RNA, dose response, counter-screen for Vif-APOBEC3G degradation inhibitor project, biochemical, fluorescence polarization, FAM-labeled TAR RNA (AID 1117361)
// values below are reported IC50
Readout: IC50

[
  {
    "Compound": "CCOC(=O)c1ccc(CC(=O)c2ccc(O)c(O)c2O)o1",
    "Result": "74 µM"
  },
  {
    "Compound": "C[c-]1[c-](C)[c-](C)[c-](C)[c-]1C.[Fe].c1cc2nccc(N3CCCC3)[c-]2c1 (stereo unspecified)",
    "Result": "2.81 µM"
  },
  {
    "Compound": "CC1C/C(=C/c2ccco2)C(=O)/C(=C/c2ccco2)C1 (stereo unspecified)",
    "Result": "3.92 µM"
  },
  {
    "Compound": "NS(=O)(=O)c1ccc(N/N=C/c2ccc(O)c(O)c2O)c([N+](=O)[O-])c1",
    "Result": "7.44 µM"
  },
  {
    "Compound": "CN1C(=O)/C(=C/C=C/c2ccco2)C(=O)NC1=S",
    "Result": "11.2 µM"
  },
  {
    "Compound": "Cc1ccc(S(=O)(=O)Cn2nnnc2C(CC(C)C)N2CCN(C)CC2)cc1 (stereo unspecified)",
    "Result": "22.6 µM"
  },
  {
    "Compound": "O=C(O)c1ccc(-n2cccc2/C=N\\NC(=O)c2cc3cc(Br)ccc3o2)cc1",
    "Result": "13.8 µM"
  },
  {
    "Compound": "Cc1cc2ccccc2n1CCNC(=O)C1CCCCC1",
    "Result": "23.5 µM"
  },
  {
    "Compound": "O=C1CC(/C=C/c2ccco2)=Nc2ccccc2N1",
    "Result": "6.84 µM"
  },
  {
    "Compound": "CCOC(=O)COc1nc(-c2ccco2)cc(-c2ccco2)c1C#N",
    "Result": "8.34 µM"
  },
  {
    "Compound": "Cc1cc(-c2cc(-c3ccc(Cl)cc3)nc(N)c2C#N)co1",
    "Result": "83.6 µM"
  },
  {
    "Compound": "COc1cc2[nH]c(Cl)c([N+](=O)[O-])c2cc1OC",
    "Result": "24.3 µM"
  },
  {
    "Compound": "Cc1cc(C(=O)CSc2nnnn2C)c(C)n1CCc1ccc(Cl)cc1",
    "Result": "84.6 µM"
  },
  {
    "Compound": "Cc1cc(C)cc(Nc2ncc3c(n2)CC(c2ccco2)CC3=O)c1 (stereo unspecified)",
    "Result": "42.7 µM"
  },
  {
    "Compound": "COCCn1nnnc1C(c1cc2cc(OC)c(OC)cc2[nH]c1=O)N1CCN(c2ccc(O)cc2)CC1 (stereo unspecified)",
    "Result": "94.3 µM"
  },
  {
    "Compound": "Cc1ccc(-c2c3c([nH]c(=S)c2C#N)CCCC3)o1",
    "Result": "21.2 µM"
  }
]

* * *

molecular target: Protein Tat (Human immunodeficiency virus type 1 group M subtype B (isolate HXB2)); assay: inhibitors of Tat binding to TAR RNA, dose response, counter-screen for Vif-APOBEC3G degradation inhibitor project, biochemical, fluorescence polarization, FAM-labeled TAR RNA (AID 1117361)
pIC50: −log10 of the molar value.
Assign met to entries whose pIC50 meets or exceeds 5; assign not met to the rest.

[
  {
    "Entry smiles": "COC(=O)COc1ccc(S(=O)(=O)Nc2cc(OC)ccc2OC)cc1",
    "Class label": "not met"
  },
  {
    "Entry smiles": "Cc1ccccc1Cc1c(C)nc2c(C(=O)NCc3ccc4c(c3)OCO4)cnn2c1C",
    "Class label": "met"
  },
  {
    "Entry smiles": "CN1c2ccsc2C(O)=C(C(=S)Nc2ccc(F)c(Cl)c2)S1(=O)=O",
    "Class label": "met"
  },
  {
    "Entry smiles": "CN(C)c1cc(Cl)c2nonc2c1N",
    "Class label": "not met"
  },
  {
    "Entry smiles": "O=C(/C=C/c1ccco1)NC(=S)Nc1ccccc1N1CCOCC1",
    "Class label": "not met"
  },
  {
    "Entry smiles": "COC(=O)c1ccc(=O)c2nc3/c(=C/O)c(O)cc(=O)c3[nH]c12",
    "Class label": "not met"
  }
]
